FYI, the data here is from paper PMC6271966.

# Test system: human hepatoma cell line (SMMC-7721)
# Assay Comment: MTT cytotoxicity assay, SMMC-7721
# Assay type: cell-based
# Condition Label: MTT, 72 h exposure, SMMC-7721, read-out: In Vitro Cytotoxicity (IC50, µM) SMMC7721
Parameter Measured: IC50 (µM)

Compound | Readout Number
CC[C@@]1(O)C(=O)OCc2c1cc1n(c2=O)Cc2cc3ccccc3nc2-1 [CPT, Camptothecin] | 0.56
